# System: A101D (Melanoma)
# assay text: combination Emax (second highest fraction inhibited in the dose matrix, 72 h); higher = more inhibition; extreme values may be limits of the assay
Property: combination Emax; scope: individual molecules
Give the figure by itself; no unit, no explanation.

Solved entries:
# molecule, observation type, value measured
measured = [
    ("CN(C)CCCOc1ccc(-c2ccc3ncc4c(c3c2)n(C2CCOCC2)c(=O)n4C)cn1 [AZD0156] + C=CCn1c(=O)c2cnc(Nc3ccc(N4CCN(C)CC4)cc3)nc2n1-c1cccc(C(C)(C)O)n1 [AZD1775] (first compound max 1 µM, partner max 1 µM)", "combination Emax", 0.495),
    ("CC(=O)c1c(C)c2cnc(Nc3ccc(N4CCNCC4)cn3)nc2n(C2CCCC2)c1=O [Palbociclib] + Cn1cnc2c(F)c(Nc3ccc(Br)cc3Cl)c(C(=O)NOCCO)cc21 [Selumetinib] (first compound max 10 µM, 7x7, partner max 10 µM)", "combination Emax", 0.588),
    ("C[C@@H](c1ccc2nccn2c1)n1nnc2ncc(-c3cnn(C)c3)nc21 [Savolitinib] + CN(CC[C@H](CSC1=CC=CC=C1)NC2=C(C=C(C=C2)S(=O)(=O)NC(=O)C3=CC=C(C=C3)N4CCC(CC4)[C@H](C5=CC=CC=C5C6=CC=C(C=C6)Cl)O)S(=O)(=O)C(F)(F)F)CCO [AZD4320] (first compound max 1 µM, 7x7, partner max 1 µM)", "combination Emax", 0.409),
]

Ask: Please tell me: combination Emax of Cc1c2c(nn1C)CSCc1cc(n(C)n1)CSc1cc(c3ccccc3c1)OCCCc1c(C(=O)O)n(C)c3c-2c(Cl)ccc13 [AZD5991] + C1CN(CCC1(C(=O)N[C@@H](CCO)C2=CC=C(C=C2)Cl)N)C3=NC=NC4=C3C=CN4 [Capivasertib] (first compound max 1 µM, 7x7, partner max 3 µM) , system A101D (Melanoma)?
Result: 1

Ask: Could you do the same for Cc1cc2ncnn2cc1Nc1ncc2c(n1)n(C1CCOCC1)c(=O)n2C [AZD7648] + C=CCn1c(=O)c2cnc(Nc3ccc(N4CCN(C)CC4)cc3)nc2n1-c1cccc(C(C)(C)O)n1 [AZD1775] (first compound max 10 µM, partner max 1 µM) , please?
Result: 0.762

Ask: Could you do the same for C=CCn1c(=O)c2cnc(Nc3ccc(N4CCN(C)CC4)cc3)nc2n1-c1cccc(C(C)(C)O)n1 [AZD1775] + O=C(c1cc(Cc2n[nH]c(=O)c3ccccc23)ccc1F)N1CCN(C(=O)C2CC2)CC1 [Olaparib] (first compound max 1 µM, partner max 10 µM) , please?
Result: 0.604

Ask: Could you do the same for Cc1c2c(nn1C)CSCc1cc(n(C)n1)CSc1cc(c3ccccc3c1)OCCCc1c(C(=O)O)n(C)c3c-2c(Cl)ccc13 [AZD5991] + C[C@@H](Nc1cc(F)cc(F)c1)c1cc(C(=O)N(C)C)cc2c(=O)cc(N3CCOCC3)oc12 [AZD8186] (first compound max 1 µM, 7x7, partner max 3 µM) , please?
Result: 0.952

Ask: Could you do the same for NC1(C(=O)N[C@@H](CCO)c2ccc(Cl)cc2)CCN(c2ncnc3[nH]ccc23)CC1 [Capivasertib] + C[C@@H]1COCCN1C2=NC(=NC(=C2)C3(CC3)[S@](=N)(=O)C)C4=C5C=CNC5=NC=C4 [AZD6738] (first compound max 10 µM, 7x7, partner max 10 µM) , please?
Result: 0.803

Ask: Could you do the same for Cc1c2c(nn1C)CSCc1cc(n(C)n1)CSc1cc(c3ccccc3c1)OCCCc1c(C(=O)O)n(C)c3c-2c(Cl)ccc13 [AZD5991] + CN(C)CCCOc1ccc(-c2ccc3ncc4c(c3c2)n(C2CCOCC2)c(=O)n4C)cn1 [AZD0156] (first compound max 1 µM, 7x7, partner max 1 µM) , please?
Result: 1

Ask: Could you do the same for CN(CCO)CC[C@H](CSc1ccccc1)Nc1ccc(S(=O)(=O)NC(=O)c2ccc(N3CCC([C@@H](O)c4ccccc4-c4ccc(Cl)cc4)CC3)cc2)cc1S(=O)(=O)C(F)(F)F [AZD4320] + CN(C)CCCOc1ccc(-c2ccc3ncc4c(c3c2)n(C2CCOCC2)c(=O)n4C)cn1 [AZD0156] (first compound max 1 µM, 7x7, partner max 1 µM) , please?
Result: 0.413

Ask: Could you do the same for CN(CCO)CC[C@H](CSc1ccccc1)Nc1ccc(S(=O)(=O)NC(=O)c2ccc(N3CCC([C@@H](O)c4ccccc4-c4ccc(Cl)cc4)CC3)cc2)cc1S(=O)(=O)C(F)(F)F [AZD4320] + C[C@@H]1COCCN1C2=NC(=NC(=C2)C3(CC3)[S@](=N)(=O)C)C4=C5C=CNC5=NC=C4 [AZD6738] (first compound max 1 µM, 7x7, partner max 10 µM) , please?
Result: 0.891

Ask: Could you do the same for COc1cccc(OCCCN)c1-c1cc(Nc2cnc(C#N)cn2)n[nH]1 [Prexasertib] + O=C(c1cc(Cc2n[nH]c(=O)c3ccccc23)ccc1F)N1CCN(C(=O)C2CC2)CC1 [Olaparib] (first compound max 1 µM, 7x7, partner max 10 µM) , please?
Result: 0.788

Ask: Could you do the same for COc1nnc2ccc(N3CCC(c4ccc(OCCN5CCN(C)C(=O)[C@H]5C)cc4)CC3)nn12 [AZD5153] + Cn1cnc2c(F)c(Nc3ccc(Br)cc3Cl)c(C(=O)NOCCO)cc21 [Selumetinib] (first compound max 1 µM, 7x7, partner max 10 µM) , please?
Result: 0.872
